Reported KD ratios, compared to LRRK2 pS910/pS935, 14-3-3τ by item:
TARGET_SYSTEM: seven human 14-3-3 isoforms
METHOD_NOTES: Affinities averaged or compared across the 14-3-3 family (ΔΔGav, KD ratios, affinity maps)
Format: binding
MEASUREMENT_SETUP: Figure 4 panel b; 14-3-3τ
Starred links: 1 amine or outer side, 2 acyl side, 3 side chain; linkers in the order of their positions; H or OH if unused. Non-standard residues stand in square brackets, D forms with d. Residues, ends and D or L forms follow the SMILES beside them. *: point of attachment. X1 = O=C(CCCC[C@@H]1SC[C@@H]2NC(=O)N[C@@H]21)NCCCOCCOCCOCCCN*; pT = C[C@@H](OP(=O)(O)O)[C@H](N)C(=O)O; Suc = O=C(CCC(=O)[*:2])[*:1]
When you answer, write just the number.

Input line: Return reported KD ratios, compared to LRRK2 pS910/pS935, 14-3-3τ; argument: CC(C)[C@H](NC(=O)[C@H](CCC(=O)O)NC(=O)[C@@H](NC(=O)[C@H](CCC(=O)O)NC(=O)[C@H](CCCNC(=N)N)NC(=O)[C@H](CCCNC(=N)N)NC(=O)[C@H](CCCNC(=N)N)NC(=O)[C@@H]1CCCN1C(=O)[C@H](CCCCN)NC(=O)[C@H](CO)NC(=O)CCC(=O)NCCCOCCOCCOCCCNC(=O)CCCC[C@@H]1SC[C@@H]2NC(=O)N[C@@H]21)[C@@H](C)OP(=O)(O)O)C(=O)O [pHPV35E6T-6R] ({X1-Suc}-SKPRRRE[pT]EV-OH)
Output line: 20421

Input line: Return reported KD ratios, compared to LRRK2 pS910/pS935, 14-3-3τ; argument: CC(C)[C@H](NC(=O)[C@H](C)NC(=O)[C@@H](NC(=O)[C@H](CCC(=O)O)NC(=O)[C@H](CCCNC(=N)N)NC(=O)[C@H](CCCNC(=N)N)NC(=O)[C@@H](NC(=O)[C@@H]1CCCN1C(=O)[C@H](CCCCN)NC(=O)[C@H](CO)NC(=O)CCC(=O)NCCCOCCOCCOCCCNC(=O)CCCC[C@@H]1SC[C@@H]2NC(=O)N[C@@H]21)[C@@H](C)O)[C@@H](C)OP(=O)(O)O)C(=O)O [pHPV35E6E-1A] ({X1-Suc}-SKPTRRE[pT]AV-OH)
Output line: 2263.16

Input line: Return reported KD ratios, compared to LRRK2 pS910/pS935, 14-3-3τ; argument: CC(C)C[C@H](NC(=O)[C@H](C)NC(=O)[C@@H](NC(=O)[C@H](CCC(=O)O)NC(=O)[C@H](CCCNC(=N)N)NC(=O)[C@H](CCCNC(=N)N)NC(=O)[C@H](CCCNC(=N)N)NC(=O)[C@H](CO)NC(=O)[C@H](CCCNC(=N)N)NC(=O)[C@H](CO)NC(=O)CCC(=O)NCCCOCCOCCOCCCNC(=O)CCCC[C@@H]1SC[C@@H]2NC(=O)N[C@@H]21)[C@@H](C)OP(=O)(O)O)C(=O)O [pHPV33E6] ({X1-Suc}-SRSRRRE[pT]AL-OH)
Output line: 370.53

Input line: Return reported KD ratios, compared to LRRK2 pS910/pS935, 14-3-3τ; argument: CC(C)C[C@H](NC(=O)[C@H](CCC(N)=O)NC(=O)[C@@H](NC(=O)[C@H](CCC(=O)O)NC(=O)[C@H](CCCNC(=N)N)NC(=O)[C@H](CCCNC(=N)N)NC(=O)[C@@H](NC(=O)[C@H](CCCNC(=N)N)NC(=O)[C@H](CO)NC(=O)[C@H](CO)NC(=O)CCC(=O)NCCCOCCOCCOCCCNC(=O)CCCC[C@@H]1SC[C@@H]2NC(=O)N[C@@H]21)[C@@H](C)O)[C@@H](C)OP(=O)(O)O)C(=O)O [pHPV16E6]
Output line: 15158
